Tested on: B16-F10
Assay text: Antiproliferative activity against mouse B16F10 cells incubated for 48 hrs by MTT assay
Assay type: functional, cell-based
Particulars: B16-F10, 48 h
Parameter measured: IC50 (µM)

Structure as smiles: COc1ccc(-c2cn3cc(C4=CCN(C(=O)C(C)(C)C)CC4)ccc3n2)cc1OC
IC50 / µM: 7.1

Structure as smiles: COc1ccc(-c2cn3cc(C4=CCN(C(=O)C5CCCCC5)CC4)ccc3n2)cc1OC
IC50 / µM: 10.9

a. COc1ccc(-c2cn3cc(C4=CCN(S(=O)(=O)C5CCCC5)CC4)ccc3n2)cc1OC
b. COc1ccc(-c2cn3cc(C4=CCN(S(=O)(=O)c5ccccc5)CC4)ccc3n2)cc1OC
c. COc1ccc(-c2cn3cc(C4=CCN(C(=O)c5cccs5)CC4)ccc3n2)cc1OC
Lookup: Please give the order of these compounds when sorted by IC50, largest value leading. Could you list the labels in the order requested?
Found: c, b, a

====

Tested on: HeLa
Assay text: Antiproliferative activity against human HeLa cells incubated for 48 hrs by MTT assay
Type: functional, cell-based
pIC50: −log10 of the molar value.
Parameter measured: pIC50

Below, each entry is followed by its recorded pIC50 result.
Structure as smiles: COc1ccc(-c2cn3cc(C4=CCN(C(=O)c5ccccc5C(F)(F)F)CC4)ccc3n2)cc1OC
Quantitative result: 5.10
//
Structure as smiles: COc1ccc(-c2cn3cc(C4=CCN(C(=O)c5cccc(C(F)(F)F)c5)CC4)ccc3n2)cc1OC
Quantitative result: 5.31
//
Structure as smiles: COc1ccc(-c2cn3cc(C4=CCN(C(=O)C5CCCCC5)CC4)ccc3n2)cc1OC
Quantitative result: 5.09
//
Structure as smiles: COc1ccc(-c2cn3cc(C4=CCN(S(=O)(=O)C5CCCC5)CC4)ccc3n2)cc1OC
Quantitative result: 5.19
//
Structure as smiles: COc1ccc(-c2cn3cc(C4=CCN(S(=O)(=O)c5ccccc5)CC4)ccc3n2)cc1OC
Quantitative result: 4.90

1. COc1ccc(-c2cn3cc(C4=CCN(C(=O)c5cccs5)CC4)ccc3n2)cc1OC
2. COc1ccc(-c2cn3cc(C4=CCN(S(=O)(=O)CCc5ccccc5)CC4)ccc3n2)cc1OC
3. COc1ccc(-c2cn3cc(C4=CCN(C(=O)C(C)(C)C)CC4)ccc3n2)cc1OC
4. Nc1ccccc1NC(=O)c1cnccn1
Lookup: Please give the order of these compounds when sorted by pIC50, largest value leading. Could you list the labels in the order requested?
Found: 3, 2, 1, 4
(3: 5.26, 2: 5.05, 1: 4.80, 4: 4.55)

I. COc1ccc(-c2cn3cc(C4=CCN(C(=O)C5CC5)CC4)ccc3n2)cc1OC
II. COc1ccc(-c2cn3cc(C4=CCN(S(=O)(=O)C5CCCCC5)CC4)ccc3n2)cc1OC
Lookup: Parameter check: reported pIC50 is higher for which label, I or II ? Let me know the label of the one you choose.
Found: II
(II: 5.00, I: 4.80)

====

Test system: B16-F10
Assay text: Antiproliferative activity against mouse B16F10 cells incubated for 48 hrs by MTT assay
Format: functional, cell-based
Particulars: B16-F10, 48 h
Parameter measured: IC50 (µM)

Structure as smiles: COc1ccc(-c2cn3cc(C4=CCN(S(=O)(=O)CCc5ccccc5)CC4)ccc3n2)cc1OC
IC50, µM: 8.08

A. Nc1ccccc1NC(=O)c1cnccn1
B. COc1ccc(-c2cn3cc(C4=CCN(C(=O)c5ccccc5C(F)(F)F)CC4)ccc3n2)cc1OC
Lookup: Returns the identifier with the smallest measured IC50 among A and B . Let me know the label of the one you choose.
Found: B
(B: 8.11 µM, A: 34.6 µM)

a. COc1ccc(-c2cn3cc(C4=CCN(C(=O)c5cccc(C(F)(F)F)c5)CC4)ccc3n2)cc1OC
b. COc1ccc(-c2cn3cc(C4=CCN(C(=O)C5CC5)CC4)ccc3n2)cc1OC
Lookup: Parameter check: reported IC50 is higher for which label, a or b ? Let me know the label of the one you choose.
Found: b
